test system: IGROV1 ovarian; assay: NCI tumour cell line growth inhibition, 48 h; in the data active = GI50 below about 0.43 µM; inactive = the rest
Hi! Could you answer with just one of these? TRUE for active, FALSE for inactive

For orientation, consider the following solved cases.
MOLECULE: O=c1ccc2nc(C(F)(F)F)nn(-c3ccccc3)c-2c1
ASSIGNED_CLASS: FALSE
//
MOLECULE: CC(C)C[C@H](NC(=O)Cn1ccc(Nc2ccccc2)cc1=O)B(O)O
ASSIGNED_CLASS: FALSE
//
MOLECULE: O=C(CCCCN1CCOCC1)Nc1ccc(Cn2nnc3c2C(=O)c2nnn(Cc4ccc(NC(=O)CCCCN5CCOCC5)cc4)c2C3=O)cc1
ASSIGNED_CLASS: FALSE
//
MOLECULE: C[C@]12CCC(=O)CC1CC[C@@H]1C2CC[C@@]2(C)C1CC[C@@H]2OC(=O)CC[Se][Se]CCC(=O)O[C@H]1CCC2[C@@H]3CCC4CC(=O)CC[C@]4(C)C3CC[C@@]21C (some centres not stated)
ASSIGNED_CLASS: FALSE
//
MOLECULE: CCOC(=O)c1nnn(-c2no[n+]([O-])c2-c2ccc(OC)cc2)c1COc1cccc2cccnc12
ASSIGNED_CLASS: FALSE

Query :: Hi, do you know how NCCN.O=C([O-])C(=O)[O-].O=C([O-])C(=O)[O-].[Co+3].[K+] came out in this test?
Result :: FALSE

Query :: Could you please tell me the result logged for C=C1C(=O)O[C@H]2[C@H]1CC/C(COC(=O)CCCC(=O)OC/C1=C/CC[C@@]3(C)O[C@H]3[C@H]3OC(=O)C(=C)[C@@H]3CC1)=C\CC[C@@]1(C)O[C@@H]21 in this assay?
Result :: FALSE

Query :: Called result for COc1ccc(N2CCN(C(=O)c3ccc(C(F)(F)F)nc3Nc3cc(Cl)ccc3C)CC2)cc1
Result :: TRUE

Query :: For COc1cc2c(cc1OCc1ccccc1)N=CC1C[C@@H](O)CN1C2=O (some centres not stated) , which call appears in the assay record?
Result :: FALSE

Query :: Please indicate how the test categorized O=C(Nc1cccc(Cl)c1)Nc1nccs1 .
Result :: FALSE

Query :: What was the test verdict on O=C(Nc1ccc([As]=[As]c2ccc(NC(=O)c3ccccc3)cc2)cc1)c1ccccc1 (configuration not stated) ?
Result :: FALSE

###

tested on: CAKI-1 renal; assay: NCI tumour cell line growth inhibition, 48 h
List of TGI values.

Example results:
COMPOUND: Cc1cc(Oc2ccccc2)ccc1Nc1ncnc2ccc(-c3cnc(Cl)c(NS(C)(=O)=O)c3)cc12
ASSAY_TARGET: CAKI-1 renal
TGI: 5.98 µM
//
COMPOUND: O=C1CC2(CCC(O)(c3ccccc3)C(C(=O)c3ccccc3)C2)C(=O)c2ccccc2N1 (stereo not given)
ASSAY_TARGET: CAKI-1 renal
TGI: > 100 µM
//
COMPOUND: COc1ccc(Oc2ccc3cc4c(cc3c2O)OCO4)c2cc(C)oc12
ASSAY_TARGET: CAKI-1 renal
TGI: > 100 µM
//
COMPOUND: O=C1N[C@@H]2[C@@H](O)[C@@H](O)[C@H](O)C[C@H]2c2cc3c(c(O)c21)OCO3
ASSAY_TARGET: CAKI-1 renal
TGI: 1.16 µM
//
COMPOUND: CC1(C)NC(C)(C)/C(=N\O)C(=NO)/C1=N/O
ASSAY_TARGET: CAKI-1 renal
TGI: > 100 µM
//
COMPOUND: O=C(O)CSc1ccc(N=C=S)cc1
ASSAY_TARGET: CAKI-1 renal
TGI: > 100 µM

Measured TGI of O=C(CCc1ccc(O)c(O)c1)OCCc1ccccc1 : > 100 µM

So for COc1nc(NC2OCC(OC(C)=O)C(OC(C)=O)C2OC(C)=O)c(-c2csc(N)n2)c(=O)n1C (stereo not given) , the logged TGI turned out to be > 100 µM

# TGI of CCOP(=O)(/C=C/n1ccc(N)nc1=O)OCC = > 100 µM

The reported TGI of the compound C=C1C(NC)CCC23CC24CCC2(C)C(C(C)=O)C(O)CC2(C)C4CCC13 (stereo not given) was > 100 µM
